Entry source: ChEMBL document CHEMBL5385869

test-protocol: Chemical stability in PBS at pH 7.4 assessed as reduction in parent compound at 1 to 10 uM measured after 24 hrs by HPLC-EM/MS analysis
Type: physicochemical
measurement-context: dose 1-10 µM, read-out: Drug degradation
measure-name: degraded at 24 h, up to 10 µM

Return degraded at 24 h, up to 10 µM (reported value) for this molecule: CSc1ccc2nc(C)cc(Nc3ccc(N4CCCCC4)cc3)c2c1
> 30%

###

test-protocol: Chemical stability in 0.1 M NH4HCO3 solution at pH 9.1 assessed as parent compound remaining at 1 to 10 uM measured after 24 hrs by HPLC-EM/MS analysis
Assay type: physicochemical
measurement-context: dose 1-10 µM, read-out: Stability
measure-name: remaining at 24 h, up to 10 µM (%)
Give bare numbers, in %.

The following compounds have reported results that may help.
>>> result_value("CSc1ccc2nc(C)cc(Nc3ccc(N4CCCCC4)cc3)c2c1")
100
>>> result_value("Cc1cc(Nc2ccc(N3CCCCC3)cc2)c2cc(Br)ccc2n1")
47

Return remaining at 24 h, up to 10 µM (reported value) for this compound: Cc1cc(Nc2ccc(N3CCCCC3)cc2)c2cc(Cl)ccc2n1
24.7

###

target-under-test: Enoyl-[acyl-carrier-protein] reductase [NADH] (Mycobacterium tuberculosis, UniProt P9WGR1)
test-protocol: Binding affinity to Mycobacterium tuberculosis InhA assessed as dissociation constant at 250 uM at 25 degreeC in presence of NADH by fluorescence spectroscopy
measure-name: pKd
Answers are plain numbers, as −log10 of the molar value.

The following compounds have reported results that may help.
>>> result_value("Cc1cc(Nc2ccc(N3CCCCC3)cc2)c2cc(Cl)ccc2n1")
6.05
>>> result_value("Cc1cc(Nc2ccc(N3CCC(C)CC3)cc2)c2cc(Br)ccc2n1")
5.90
>>> result_value("CSc1ccc2nc(C)cc(Nc3ccc(N4CCCCC4)cc3)c2c1")
6.06

Return pKd (reported value) for this compound: Cc1cc(Nc2ccc(N3CCCCC3)cc2)c2cc(Br)ccc2n1
6.09

###

target-under-test: Enoyl-[acyl-carrier-protein] reductase [NADH] (Mycobacterium tuberculosis)
test-protocol: Noncompetitive inhibition of Mycobacterium tuberculosis InhA using DD-CoA as substrate assessed as inhibition constant for enzyme-inhibitor binary complex in presence of varying concentrations of NADH by double reciprocal plot analysis
Could you please report measured pKi for the items listed next?
One number for each entry, as −log10 of the molar value.

The following molecules have reported results that may help.
>>> result_value("Cc1cc(Nc2ccc(N3CCCCC3)cc2)c2cc(Br)ccc2n1")
6.85
>>> result_value("Cc1cc(Nc2ccc(N3CCCCC3)cc2)c2cc(Cl)ccc2n1")
6.37

List pKi for every entry below, keeping the order given.
1. CSc1ccc2nc(C)cc(Nc3ccc(N4CCCCC4)cc3)c2c1
2. Cc1cc(Nc2ccc(N3CCC(C)CC3)cc2)c2cc(Br)ccc2n1

1. 6.37
2. 6.14

###

Could you please report measured Papp at 5 h, 10 µM for the items listed next?
test-protocol: Permeability of compound at 10 uM measured after 5 hrs by PAMPA assay
Format: ADME
measurement-context: read-out: permeability
Give bare numbers, in ×10⁻⁶ cm/s.

>>> result_value("Cc1cc(Nc2ccc(N3CCCCC3)cc2)c2cc(Cl)ccc2n1")
11.5

List Papp at 5 h, 10 µM for every entry below, keeping the order given.
1. Cc1cc(Nc2ccc(N3CCCCC3)cc2)c2cc(Br)ccc2n1
2. CSc1ccc2nc(C)cc(Nc3ccc(N4CCCCC4)cc3)c2c1

3.16
0.03

###

test-protocol: Selectivity index, ratio of CC50 for African green monkey Vero cells by MTT assay to MIC for pan-sensitive Mycobacterium tuberculosis H37Rv ATCC 27294
Assay type: toxicity, cell-based
measurement-context: read-out: Selectivity Index
measure-name: selectivity ratio
Numbers only.

>>> result_value("Cc1cc(Nc2ccc(N3CCCCC3)cc2)c2cc(Cl)ccc2n1")
21.3
>>> result_value("CSc1ccc2nc(C)cc(Nc3ccc(N4CCCCC4)cc3)c2c1")
27.7

Now look at this one.
Return selectivity ratio (reported value) for this compound: Cc1cc(Nc2ccc(N3CCC(C)CC3)cc2)c2cc(Br)ccc2n1
13.8

###

test-protocol: Selectivity index, ratio of CC50 for human HepG2 cells by neutral red uptake assay to MIC for pan-sensitive Mycobacterium tuberculosis H37Rv ATCC 27294
Type: toxicity
measurement-context: read-out: Selectivity Index
measure-name: selectivity ratio

The following molecules have reported results that may help.
>>> result_value("Cc1cc(Nc2ccc(N3CCCCC3)cc2)c2cc(Cl)ccc2n1")
18.2
>>> result_value("Cc1cc(Nc2ccc(N3CCCCC3)cc2)c2cc(Br)ccc2n1")
45.7
>>> result_value("Cc1cc(Nc2ccc(N3CCC(C)CC3)cc2)c2cc(Br)ccc2n1")
17.4

Now look at this one.
Return selectivity ratio (reported value) for this molecule: CSc1ccc2nc(C)cc(Nc3ccc(N4CCCCC4)cc3)c2c1
30.5

###

test-protocol: Selectivity index, ratio of CC50 for African green monkey Vero cells by neutral red uptake assay to MIC for pan-sensitive Mycobacterium tuberculosis H37Rv ATCC 27294
Format: toxicity, cell-based
measurement-context: read-out: Selectivity Index
Could you please report measured selectivity ratio for the items listed next?
Give bare numbers.

>>> result_value("Cc1cc(Nc2ccc(N3CCCCC3)cc2)c2cc(Cl)ccc2n1")
13
>>> result_value("CSc1ccc2nc(C)cc(Nc3ccc(N4CCCCC4)cc3)c2c1")
21.2
>>> result_value("Cc1cc(Nc2ccc(N3CCCCC3)cc2)c2cc(Br)ccc2n1")
30.5

Now look at this one.
Return selectivity ratio (reported value) for this compound: Cc1cc(Nc2ccc(N3CCC(C)CC3)cc2)c2cc(Br)ccc2n1
8.9

###

test-protocol: Cytotoxicity against human HepG2 cells assessed as reduction in cell viability incubated for 72 hrs by MTT assay
Format: toxicity, cell-based
Could you please report measured CC50 at 72 h for the items listed next?
Give bare numbers, in µM.

>>> result_value("CSc1ccc2nc(C)cc(Nc3ccc(N4CCCCC4)cc3)c2c1")
5.9

Return CC50 at 72 h (reported value) for this compound: Cc1cc(Nc2ccc(N3CCC(C)CC3)cc2)c2cc(Br)ccc2n1
5.3

###

test-protocol: Cytotoxicity against human HepG2 cells assessed as reduction in cell viability incubated for 72 hrs by neutral red uptake assay
Format: toxicity, cell-based
Could you please report measured CC50 at 72 h for the items listed next?
Answers are plain numbers, in µM.

The following molecules have reported results that may help.
>>> result_value("CSc1ccc2nc(C)cc(Nc3ccc(N4CCCCC4)cc3)c2c1")
12.2
>>> result_value("Cc1cc(Nc2ccc(N3CCCCC3)cc2)c2cc(Cl)ccc2n1")
16.4
>>> result_value("Cc1cc(Nc2ccc(N3CCC(C)CC3)cc2)c2cc(Br)ccc2n1")
12.2

Now look at this one.
Return CC50 at 72 h (reported value) for this molecule: Cc1cc(Nc2ccc(N3CCCCC3)cc2)c2cc(Br)ccc2n1
18.3

###

Could you please report measured log10 of IC50 for the items listed next?
target-under-test: Enoyl-[acyl-carrier-protein] reductase [NADH] (Mycobacterium tuberculosis)
Sequence (P9WGR1 whole entry): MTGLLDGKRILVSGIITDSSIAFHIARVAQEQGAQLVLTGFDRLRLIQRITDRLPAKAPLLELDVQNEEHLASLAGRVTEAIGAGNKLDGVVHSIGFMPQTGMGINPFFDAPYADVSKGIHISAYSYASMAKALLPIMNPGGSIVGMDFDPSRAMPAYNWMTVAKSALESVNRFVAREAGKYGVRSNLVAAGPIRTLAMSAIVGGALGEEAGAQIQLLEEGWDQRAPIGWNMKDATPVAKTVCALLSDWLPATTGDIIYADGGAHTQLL
Use the decimal logarithm of IC50 (µM).

List log10 of IC50 for every entry below, keeping the order given.
1. CSc1ccc2nc(C)cc(Nc3ccc(N4CCCCC4)cc3)c2c1
2. Cc1cc(Nc2ccc(N3CCCCC3)cc2)c2cc(C(C)C)ccc2n1
3. CCOC(=O)c1ccc2nc(C)cc(Nc3ccc(N4CCOCC4)cc3)c2c1

1. 0.00
2. 0.91
3. 1.29

List log10 of IC50 for every entry below, keeping the order given.
1. CCOC(=O)c1ccc2nc(C)cc(Nc3ccc(-n4cccn4)cc3)c2c1
2. Cc1cc(Nc2ccc(N3CCC(C)CC3)cc2)c2cc(Br)ccc2n1
3. COc1ccc2nc(C)cc(Nc3ccc(N4CCCCC4)cc3)c2c1

0.90
0.15
0.67

List log10 of IC50 for every entry below, keeping the order given.
1. CCCCc1ccc(Nc2cc(C)nc3ccc(C(=O)OCC)cc23)cc1
2. CCOC(=O)c1ccc2nc(C)cc(Nc3ccc(N4CCCC4)cc3)c2c1

1. 1.05
2. 1.34

###

target-under-test: Enoyl-[acyl-carrier-protein] reductase [NADH] (Mycobacterium tuberculosis, UniProt P9WGR1)
Sequence (P9WGR1 whole entry): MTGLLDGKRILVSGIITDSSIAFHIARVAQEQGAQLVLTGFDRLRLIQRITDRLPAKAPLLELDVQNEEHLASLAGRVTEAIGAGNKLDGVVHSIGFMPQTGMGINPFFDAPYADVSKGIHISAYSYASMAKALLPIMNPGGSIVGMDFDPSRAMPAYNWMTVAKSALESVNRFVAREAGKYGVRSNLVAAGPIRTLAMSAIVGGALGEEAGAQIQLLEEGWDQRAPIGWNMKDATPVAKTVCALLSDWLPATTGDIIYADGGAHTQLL
test-protocol: Binding affinity to wild type Mycobacterium tuberculosis InhA assessed as inhibition constant in presence of NADH, DD-CoA by spectrophotometry based analysis
measure-name: Ki (nM)
Numbers only, in nM.

Return Ki (reported value) for this molecule: NNC(=O)c1ccncc1 [ISONIAZID]
0.75
